# TEST_TARGET: T1, human MCAM (melanoma cell adhesion molecule) expressed on transfected CHO cells (human, UniProt P43121 24-646)
# T1 construct: also called hMCAM; CD146
# T1 chain: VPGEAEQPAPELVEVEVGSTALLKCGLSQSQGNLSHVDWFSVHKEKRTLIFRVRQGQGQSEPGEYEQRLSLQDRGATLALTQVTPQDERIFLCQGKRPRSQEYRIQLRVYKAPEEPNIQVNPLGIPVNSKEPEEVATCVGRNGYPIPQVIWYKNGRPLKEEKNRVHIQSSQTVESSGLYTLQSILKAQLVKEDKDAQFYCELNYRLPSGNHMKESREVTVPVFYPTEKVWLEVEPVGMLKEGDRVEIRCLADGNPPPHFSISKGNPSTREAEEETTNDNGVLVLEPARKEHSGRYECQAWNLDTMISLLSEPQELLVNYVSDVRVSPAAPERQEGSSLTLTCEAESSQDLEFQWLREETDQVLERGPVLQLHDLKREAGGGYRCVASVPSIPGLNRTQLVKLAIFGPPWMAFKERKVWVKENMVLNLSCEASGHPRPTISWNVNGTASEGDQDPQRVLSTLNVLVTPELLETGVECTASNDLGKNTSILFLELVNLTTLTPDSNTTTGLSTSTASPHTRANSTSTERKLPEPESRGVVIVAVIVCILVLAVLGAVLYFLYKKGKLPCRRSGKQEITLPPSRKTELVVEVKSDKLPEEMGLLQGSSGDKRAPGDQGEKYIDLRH
# ASSAY_METHOD_TEXT: summary of laminin blocking assay on hMCAM CHO cells, competitor laminin 411; vs rodent 1749
fold reduction in potency compared to the rodent for assorted binders
PARAMETER: fold reduction in potency compared to the rodent

BINDER	MEASURED_VALUE
h1749VH1 + h1749VL2 (antibody, human IgG1, V domains shown) VH: EVQLVESGGGLVQPGGSLRLSCAASGFTFSSYIMSWVRQAPGKGLEWVATISSGGSSTYYPDSVKGRFTISRDNAKNSLYLQMNSLRAEDTAVYYCTRDDDYDVKVFAYWGQGTMVTVSS VL: DIVMTQSPDSLAVSLGERATINCKSSRSLLNSRIRKNYLAWYQQKPGQPPKLLIYWASTRESGVPDRFTGSGSGTDFTLTISSLQAEDVAVYYCKQSYNLLTFGQGTKVEIK	< 2 fold
h1749VH2 + h1749VL2 (antibody, human IgG1, V domains shown, also called humanized 1749 conservative VH and VL) VH: EVQLVESGGGLVQPGGSLRLSCAASGFTFSSYIMSWVRQAPGKRLEWVATISSGGSSTYYPDSVKGRFTISRDNAKNSLYLQMNSLRAEDTAVYYCTRDDDYDVKVFAYWGQGTMVTVSS VL: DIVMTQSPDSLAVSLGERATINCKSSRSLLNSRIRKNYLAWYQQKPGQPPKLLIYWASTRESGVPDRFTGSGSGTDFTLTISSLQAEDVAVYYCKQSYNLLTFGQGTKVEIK	< 2 fold
h1749VH1 + h1749VL1 (antibody, human IgG1, V domains shown, also called humanized 1749 standard VH and VL) VH: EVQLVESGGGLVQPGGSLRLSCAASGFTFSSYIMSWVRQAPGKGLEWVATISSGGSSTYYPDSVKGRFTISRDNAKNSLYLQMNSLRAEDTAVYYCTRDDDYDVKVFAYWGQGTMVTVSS VL: DIVMTQSPDSLAVSLGERATINCKSSRSLLNSRIRKNYLAWYQQKPGQPPKLLIYWASTRESGVPDRFSGSGSGTDFTLTISSLQAEDVAVYYCKQSYNLLTFGQGTKVEIK	< 2 fold
